Tested on: CEM cells HIV-1 protection, formazan growth assay
measurementProtocol: NCI AIDS Antiviral Assay
conditionsUsed: measured here: growth of uninfected CEM cells
Experimental: The ability of compounds to protect human CEM cells from HIV-1 infection is measured as a screen for new compounds capable of inhibiting the HIV virus. Five concentrations of drug were tested on uninfected and infected cells and cell growth was measured using a soluble formazan assay. […] Compounds that provided at least 50% protection were retested. Compounds that provided at least 50% protection on retest were listed as moderately active. […]
Give pIC50 for every item shown.
Answers are plain numbers, as −log10 of the molar value.

Reference set, count: 5
compound: CCOC(=O)c1cn(CC)c(=O)n2c1nc1ccccc12
pIC50: 3.93
//
compound: CC(=O)CCC(=O)C(=[N+]=[N-])S(=O)(=O)c1ccccc1
pIC50: 3.82
//
compound: CC(=O)NNc1nc(C)c(C(=O)NNC(=O)C(=O)Nc2c(C)cccc2C(C)(C)C)s1
pIC50: 4.58
//
compound: O=C(c1nc2cc([N+](=O)[O-])ccc2[nH]c1=O)C(O)c1ccco1 (stereo unspecified)
pIC50: 4.21
//
compound: COc1cc(O)c(/C=N\O)c(OC)c1
pIC50: 4.08

Would you be so kind as to report pIC50 for each listed record?
1. NC(CSS(=O)(=O)CC(N)C(=O)O)C(=O)O (stereo unspecified)
2. CCOC(=O)Cc1csc(N=Nc2c(O)[nH]c3ccccc23)n1
3. C=CC[C@H](C[C@H](C[C@H](C[C@H](C[C@H](C[C@H](C[C@H](C[C@H](C[C@H](C[C@H](CCCCC)OC)OC)OC)OC)OC)OC)OC)OC)OC)OC

Result:
1: 4.20; 2: 3.96; 3: 3.94

Values were extracted from PubChem BioAssay AID179.
